- EXPERIMENT_NOTES: sensitizers of A549 cells to miR-34 induction, primary screen, imaging, A549 dox-inducible miR-34, nuclei and caspase counts (AID 1347080)
- DETAILS: A549 miR-34 inducible, Hoechst nuclei count, 48 h; measured here: total cells with miR-34 induction; stronger effect = lower value
cell count values by entry
MEASURED_METRIC: cell count

COMPOUND: CC(=O)OCC(=O)[C@@]1(O)CCC2C3CCC4=CC(=O)CC[C@]4(C)[C@@]3(F)[C@@H](O)C[C@@]21C (stereo not given in full)
REPORTED_RESULT: 6890
--
COMPOUND: CC(C)(C)NC(=O)[C@H]1CCC2C3CCC4NC(=O)C=C[C@]4(C)C3CC[C@@]21C (stereo not given in full)
REPORTED_RESULT: 11000
--
COMPOUND: CCCCCC(=O)O[C@]1(C(C)=O)CCC2C3CCC4=CC(=O)CC[C@]4(C)C3CC[C@@]21C (stereo not given in full)
REPORTED_RESULT: 7140
--
COMPOUND: O=C(O)c1ccc2cc(-c3ccc(O)c(C45CC6CC(CC(C6)C4)C5)c3)ccc2c1
REPORTED_RESULT: 1990
--
COMPOUND: C=C(C)C1CC=C(C)CC1 (stereo not given)
REPORTED_RESULT: 8150

###

Quick list: inhibition per entry.
- EXPERIMENT_NOTES: HepG2 cytotoxicity, primary screen, cytotoxicity control for P. falciparum antimalarial project, cell-based, ATP luminescence (AID 2303);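 also: 0% = DMSO wells and 100% = digitonin-killed cells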
- DETAILS: HepG2 viability, 24-48 h, at 10 µM, stronger effect = higher value
MEASURED_METRIC: inhibition (%)

MOLECULE: CC(Oc1ccc(Cl)cc1)C(=O)Nc1cc(C(F)(F)F)ccc1N1CCOCC1 (stereo not drawn)
RESULT_UNIT: %
REPORTED_RESULT: 14

MOLECULE: COc1cccc(NC(=O)Cn2c(C)c(C(=O)C(F)(F)F)c3ccccc32)c1
RESULT_UNIT: %
REPORTED_RESULT: 2

MOLECULE: Cc1ccc(S(=O)(=O)n2nccc2-c2c(-c3ccc(Cl)cc3)noc2C)cc1
RESULT_UNIT: %
REPORTED_RESULT: -1

MOLECULE: CCOC(=O)C(C)(C)Oc1ccc(CN(Cc2ccc(CC(C)C)cc2)C(=O)Nc2ccc(F)cc2F)c(OC)c1
RESULT_UNIT: %
REPORTED_RESULT: 5

MOLECULE: O=C(Nc1cc(Cl)cc(Cl)c1)c1cnn(-c2ccc(F)cc2)c1C1CCNCC1
RESULT_UNIT: %
REPORTED_RESULT: 13

MOLECULE: CC(=O)Nc1ccc(CN2CCc3ccc(NS(=O)(=O)c4ccc(-c5cccc(C(F)(F)F)c5)cc4)cc3CC2)s1
RESULT_UNIT: %
REPORTED_RESULT: 23

MOLECULE: NC1(C(=O)O)Cc2ccc(Cl)cc2C1 (stereo not drawn)
RESULT_UNIT: %
REPORTED_RESULT: 0

MOLECULE: Cc1nc(-c2cccc(Nc3ccnc4cc(-c5nccs5)ccc34)c2)no1
RESULT_UNIT: %
REPORTED_RESULT: 37

MOLECULE: CCN(CC)C(C)(C)CN(Cc1ccc(-c2ccc(C(F)(F)F)cc2)cc1)C(=O)Cn1c(CCc2cccc(F)c2F)nc(=O)c2ccccc21
RESULT_UNIT: %
REPORTED_RESULT: 53

MOLECULE: O=C(NCCN1CCCC1)c1cccc(Nc2nccc(Nc3ccc(Oc4ccccc4)cc3)n2)c1
RESULT_UNIT: %
REPORTED_RESULT: 33

MOLECULE: O=C(NC1c2ccccc2Oc2ccccc21)c1ccccc1O
RESULT_UNIT: %
REPORTED_RESULT: -3

MOLECULE: Nc1nccc2ccc(OC3CCCCC3)cc12
RESULT_UNIT: %
REPORTED_RESULT: 24

MOLECULE: O=C(CCCCCNC(=O)c1ccc(O)c(-c2ccc(Cl)c(Cl)c2)c1)NCc1cccc2ccccc12
RESULT_UNIT: %
REPORTED_RESULT: 2

MOLECULE: O=S(=O)(NCCN1CCCC1)c1cccc(-c2cccc(CNCc3ccsc3)c2)c1
RESULT_UNIT: %
REPORTED_RESULT: 69

MOLECULE: COc1ccc(-c2cc(C(F)(F)F)n3ncc(C(=O)Nc4cc(C)ccc4O)c3n2)cc1OC
RESULT_UNIT: %
REPORTED_RESULT: 2

MOLECULE: O=C(Nc1cccc(-c2nn3ccccc3c2-c2ccnc(Nc3cccc(F)c3)n2)c1)C1CCCCC1
RESULT_UNIT: %
REPORTED_RESULT: 44

MOLECULE: O=C(NCC1CC1)C1CCN(C(c2ccccc2)c2nc3ccccc3s2)CC1 (stereo not drawn)
RESULT_UNIT: %
REPORTED_RESULT: -3

MOLECULE: CC(C)c1sc(-c2ccc(C(C)(C)C)cc2)nc1C(=O)NCCCN1CCCC1=O
RESULT_UNIT: %
REPORTED_RESULT: -2

MOLECULE: NC1=NC(c2ccccc2)(c2ccccc2)C(=O)N1Cc1ccccc1Br
RESULT_UNIT: %
REPORTED_RESULT: 36

MOLECULE: COc1ccc2nccc([C@@H](O)CN3CCC(NCc4cc5oc(=O)[nH]c5cc4Cl)CC3)c2c1
RESULT_UNIT: %
REPORTED_RESULT: 1

MOLECULE: O=C(Nc1cccc(-c2nn3ccccc3c2-c2ccnc(Nc3ccc(C(=O)N4CCOCC4)cc3)n2)c1)c1c(F)cccc1F
RESULT_UNIT: %
REPORTED_RESULT: 72

MOLECULE: CC1(C)N=C(N)N=C(N)N1c1cccc(Cl)c1
RESULT_UNIT: %
REPORTED_RESULT: 69

MOLECULE: COC(=O)Cn1c(C2CCN(CC3CCC(NC(=O)/C=C/c4ccc(Cl)c(Cl)c4)CC3)CC2)nc2ccccc21 (stereo not drawn)
RESULT_UNIT: %
REPORTED_RESULT: 12

MOLECULE: O=C(Nc1cccc(C(F)(F)F)c1)NC1CCN(c2ccnc3cc(Cl)ccc23)C1 (stereo not drawn)
RESULT_UNIT: %
REPORTED_RESULT: 18

MOLECULE: CC(C)(CNC(=O)[C@@H]1CCCN(CCOc2ccc(F)c(F)c2)C1)c1nc(-c2ccc(Cl)c(O)c2)c(-c2ccncc2)[nH]1
RESULT_UNIT: %
REPORTED_RESULT: 72

MOLECULE: NCC(=O)NC12CC3CC(CC(C3)C1)C2
RESULT_UNIT: %
REPORTED_RESULT: 15

MOLECULE: COc1cc(Nc2ncnc3cc(OC)c(OC)cc23)cc([N+](=O)[O-])c1
RESULT_UNIT: %
REPORTED_RESULT: 8

MOLECULE: CO/N=C(\C)c1ccc2c(c1)CCN(CCC1CCC(NC(=O)c3cccc(-c4noc(C)n4)c3)CC1)CC2 (stereo not drawn)
RESULT_UNIT: %
REPORTED_RESULT: 42

MOLECULE: O=C(/C=C/c1ccc(-c2nc3cc(F)c(F)cc3[nH]2)cc1)NCc1ccc(Cl)c(Cl)c1
RESULT_UNIT: %
REPORTED_RESULT: 14

MOLECULE: COc1ccc(-c2ccc(NC(=O)c3ccc(C#N)cc3)cc2)cc1CN1CCCC1
RESULT_UNIT: %
REPORTED_RESULT: 40

MOLECULE: CC(C)c1cc2c(cc1O)C(Cc1ccccc1Cl)N(C)CC2 (stereo not drawn)
RESULT_UNIT: %
REPORTED_RESULT: -7

MOLECULE: CN(C)CCNCc1ccc(-c2ccc3c(Nc4ccc(Cl)cc4F)ccnc3c2)o1
RESULT_UNIT: %
REPORTED_RESULT: 14

MOLECULE: Fc1ccc2nc(-c3cccc(-c4ccc(CN5CCN(CCN6CCOCC6)CC5)cc4)c3)[nH]c2c1
RESULT_UNIT: %
REPORTED_RESULT: 30

MOLECULE: c1ccc2c3c([nH]c2c1)C(c1ccc2c(c1)CCO2)N(c1ncnc(N2CCN(CCCN4CCOCC4)CC2)n1)CC3 (stereo not drawn)
RESULT_UNIT: %
REPORTED_RESULT: 37

MOLECULE: COc1cccc(C2CCN(CCCCNC(=O)c3ccc(NC(=O)c4ccc(Cl)cc4)cc3)CC2)c1
RESULT_UNIT: %
REPORTED_RESULT: 18

MOLECULE: Cc1cccc(CN2CCC(CNC(=O)c3cc4c(-c5ccccc5F)nn(C)c4s3)CC2)c1
RESULT_UNIT: %
REPORTED_RESULT: 18

MOLECULE: COc1ccc(-c2ccc(NC(=O)c3cccc(C#N)c3)cc2)cc1CN1CCNCC1
RESULT_UNIT: %
REPORTED_RESULT: 30

MOLECULE: Nc1ncc(-c2cccc(F)c2)cc1-c1nc2ccc(F)cc2[nH]1
RESULT_UNIT: %
REPORTED_RESULT: 54
